molecular target: UniProt:P35372; assay: Displacement of [3H]DAMGO from recombinant human mu-opioid receptor expressed in CHO cell membranes after 60 mins by liquid scintillation counting method
Sequence (P35372 whole entry): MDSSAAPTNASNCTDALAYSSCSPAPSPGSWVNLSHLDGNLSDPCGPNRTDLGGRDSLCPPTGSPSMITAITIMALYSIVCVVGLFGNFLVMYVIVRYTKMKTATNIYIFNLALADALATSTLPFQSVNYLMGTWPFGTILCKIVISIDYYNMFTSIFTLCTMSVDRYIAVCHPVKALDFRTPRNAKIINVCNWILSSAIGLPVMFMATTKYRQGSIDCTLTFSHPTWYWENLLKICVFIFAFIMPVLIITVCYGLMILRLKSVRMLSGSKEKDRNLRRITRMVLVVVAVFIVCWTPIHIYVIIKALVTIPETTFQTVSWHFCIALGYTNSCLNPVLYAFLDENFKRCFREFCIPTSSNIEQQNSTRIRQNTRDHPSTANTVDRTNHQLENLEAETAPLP
endpoint-name: Ki (nM)

{"columns": ["compound", "Ki / nM"],
 "data": [
  ["Cc1cc(C)cc(C2CCCN2Cc2ccc(Oc3ccc(C(N)=O)cc3)c(Cl)c2)c1 (configuration not stated)", 32.3]
]}

(I) Cc1cc(C)cc(C2CCCN2Cc2ccc(Oc3ccc(C(N)=O)cc3)c(F)c2)c1 (configuration not stated)
(II) Cc1cc(C)cc(C2CCCN2Cc2ccc(Oc3ccc(C(N)=O)cc3F)cc2)c1 (racemic)
(III) Cc1cc(C)cc(C2CCCN2Cc2ccc(Oc3ccc(C(N)=O)cc3F)c(F)c2)c1 (configuration not stated)
Q. Ordering: ascending Ki. Return value: ordered labels per request.
A. III, I, II

Origin of measurements: ChEMBL document CHEMBL4049389
